Molecular target: OsWRKY34 (Oryza sativa, UniProt Q0JBA9 1-250)
Sequence (Q0JBA9 entry or part of it): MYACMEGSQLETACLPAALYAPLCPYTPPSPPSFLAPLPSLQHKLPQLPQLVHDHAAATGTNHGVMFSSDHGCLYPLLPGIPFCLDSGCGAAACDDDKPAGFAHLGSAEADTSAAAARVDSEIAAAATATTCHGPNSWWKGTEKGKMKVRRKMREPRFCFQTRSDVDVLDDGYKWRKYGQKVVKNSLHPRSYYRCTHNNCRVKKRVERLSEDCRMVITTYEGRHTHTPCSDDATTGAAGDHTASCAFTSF
Test: protein-binding microarray (RPBM); PBS, 2% BSA, 51.3 ng/ul salmon testes DNA, 50 uM zinc acetate, 200 nM TF, 25 C, 1 h; high values mean tight binding
Details: protein: recombinant; tags: N-terminal polyhistidine and DsRed monomer fusion (pET32a); label: CyDye5-dUTP incorporated in the synthesized complementary strand; 3' TTTTT single-stranded linker to array surface; dsDNA, one strand shown
Over roughly 68,000 sequences, “fluorescence intensity (a.u.)” has its median near 9,100; the highest 2% begin near 16,000. For the sample, the highest values were picked, then their nearest neighbours and some sequences at random.
METRIC NAME: binding signal

GTAGGGGCGGGAGGGGAGGCGTGGTGGCGCCGGGCCGGCGCGGAGTCACCTAGTGCAG :: 14900 fluorescence intensity (a.u.)
GGTGGCGGTTGCGGGTGGAGGGCCGCGGCGGTGCGACGAACGGAGTCACCTAGTGCAG :: 8480 fluorescence intensity (a.u.)

Proceeding to the next sequence to report its binding signal.
In: For the sequence GCGTTGTGGGTGTCTTGTGTTGTACTGCGTAATTCTTAAACGGAGTCACCTAGTGCAG , what binding signal is on record?
Out: 15000 fluorescence intensity (a.u.)

----------
Biological target: OsWRKY34 (Oryza sativa, UniProt Q0JBA9 1-250)
Assay: protein-binding microarray (RPBM); PBS, 2% BSA, 51.3 ng/ul salmon testes DNA, 50 uM zinc acetate, 200 nM TF, 25 C, 1 h; high values mean tight binding
Details: protein: recombinant; tags: N-terminal polyhistidine and DsRed monomer fusion (pET32a); label: CyDye5-dUTP incorporated in the synthesized complementary strand; 3' TTTTT single-stranded linker to array surface; dsDNA, one strand shown
The full ranking holds about 68,000 sequences; the median of “fluorescence intensity (a.u.)” is about 9,100, and the highest 2% start at about 16,000. The list comes from a sample in which the highest values are over-represented; it also holds close analogues and randomly drawn sequences.
METRIC NAME: binding signal

The examples below pair each entry with its known result.
GGGCGCGATGGGTTGGGGTGTGTTTCCGTGGATTGATGACCGGAGTCACCTAGTGCAG :: 21100 fluorescence intensity (a.u.)
TCCACCATTGACCAATGCCACGTCCTGCCAAATCCTCCTCCGGAGTCACCTAGTGCAG :: 10700 fluorescence intensity (a.u.)
TTTGACGCTGTTGACTTTTTTTAACATGTTTGACTGTTCGCGGAGTCACCTAGTGCAG :: 32700 fluorescence intensity (a.u.)
ACGTTGGATTGGTGGTGGACGGGCGCGATGGGTTGGGGTGCGGAGTCACCTAGTGCAG :: 9930 fluorescence intensity (a.u.)
ACCCGTCTCTCTTTCTTTCTTTCTCTCTCTCCTGTGTTTTCGGAGTCACCTAGTGCAG :: 8600 fluorescence intensity (a.u.)

In: For the sequence AGCTGGATTACCCTTTATACATTTTACTTTAATCTCTTTGCGGAGTCACCTAGTGCAG , what binding signal is on record?
Out: 10900 fluorescence intensity (a.u.)

In: Request: ACTTCCCATTGTTGTTGCCATCGCCGCCGCCGCCGCCGCCCGGAGTCACCTAGTGCAG
Out: 12200 fluorescence intensity (a.u.)

In: Request: ATGTGATTAAATGGAGGGTTTTCGGGGAGGGTTTTCGGGGCGGAGTCACCTAGTGCAG
Out: 24100 fluorescence intensity (a.u.)

// provenance: paper PMC7819943
